Below: a set of entries, each annotated with reported IC50.
# MEASUREMENT TARGET: GLUT4 (Homo sapiens, UniProt P14672)
# Sequence (P14672 whole entry): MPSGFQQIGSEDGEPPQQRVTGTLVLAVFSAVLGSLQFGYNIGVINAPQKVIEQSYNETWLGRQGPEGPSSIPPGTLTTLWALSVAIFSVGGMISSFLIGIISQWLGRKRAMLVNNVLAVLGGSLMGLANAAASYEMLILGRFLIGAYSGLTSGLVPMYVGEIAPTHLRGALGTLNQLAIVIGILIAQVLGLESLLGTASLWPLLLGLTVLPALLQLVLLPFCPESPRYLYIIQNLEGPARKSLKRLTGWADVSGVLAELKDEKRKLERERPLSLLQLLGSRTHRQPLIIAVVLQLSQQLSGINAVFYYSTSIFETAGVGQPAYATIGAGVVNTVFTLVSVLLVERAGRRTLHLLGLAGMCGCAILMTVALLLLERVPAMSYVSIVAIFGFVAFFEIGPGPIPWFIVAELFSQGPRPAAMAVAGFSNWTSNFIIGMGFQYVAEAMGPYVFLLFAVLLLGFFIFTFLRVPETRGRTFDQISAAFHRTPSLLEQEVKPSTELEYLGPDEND
# PROTOCOL DETAILS: 2-DOG transport in HEK293 cells over-expressing GLUT4
# CONDITIONS USED: pre-treated 5 minutes, 2-DOG uptake 4 min; cells lacking GLUT1; read-out: IC50 (inhibition of 2-DOG transport in HEK cells over-expressing GLUT isoforms) GLUT4
Express the reported value numerically, then name its unit.

Take a look at these entries with their results.
COMPOUND	IC50
COc1ccc(C(=O)N(Cc2ccncc2)Cc2cccc(OCCc3ccc(F)cc3)c2)cc1	3.5 µM
Oc1cccc(CNCc2ccncc2)c1 [Compound 3, reference compound]	18.9 µM
COc1ccc(CC(=O)N(Cc2ccncc2)Cc2cccc(OCCc3ccc(F)cc3)c2)cc1	18.2 µM

From here, focus on the item given below.
Tested on GLUT4 (Homo sapiens, UniProt P14672), the item COc1ccc(C(=O)N(Cc2ccncc2)Cc2cccc(OCc3cccc(OC)c3)c2)cc1 showed IC50 equal to 10.8 µM
